# protocolDescription: gradient 5% acetonitrile 3 min, to 50% in 2 min, to 85% in 15 min, held 3 min, 100 µL/min
# measurementContext: column: Zorbax Extend-C18 2.1 x 50 mm; eluents: water / acetonitrile, 0.1% formic acid
quantityMeasured: RP-LC retention time (s)

• CCCNC(=O)C1CCN(c2nc3ccsc3c(=O)n2-c2cccc(OC)c2)CC1 = 675
• CCCN1C(=O)COc2ccc(-c3csc(NC(=O)c4ccc(F)cc4)n3)cc21 = 1060
• CCc1nc(-c2cc3ccccc3nc2N2CCN(c3ccc(OC)cc3)CC2)no1 = 687

(A) CCc1sc(NC(=O)c2cccc(NC(=O)C(CC)CC)c2)nc1-c1ccccc1
(B) CNC(=O)[C@H]1O[C@@H](n2cnc3c(NCc4cccc(I)c4)ncnc32)C(O)[C@H]1O (stereo not given in full)
Task: Form field 'greater RP-LC retention time' accepts A or B ; which applies? Kindly state the label of the option you pick.
Output: A
